- system: HLA-A*02:01 class I complex (biotinylated heavy chain with beta2-microglobulin) (human)
- procedure_summary: UV peptide exchange + HLA class I ELISA; % of Pos control peptide
- measurement_parameters: remark: other sources report otherwise
Quick rule for you: exchange rate with Pos peptide under 8% gets rule met, anything else gets rule not met.

Past entries and their recorded results:
{"columns": ["binder", "label_class"],
 "data": [
  ["QLIAMDSAI (here or on the partner: biotinylated heavy chain) [P22 9-mer neoantigen peptide … (SLC45A3-ELK4 fusion)]", "rule not met"],
  ["LMAQRLLLR (here or on the partner: biotinylated heavy chain) [P97 9-mer neoantigen peptide … (FOXRED2-TXN2 fusion)]", "rule met"],
  ["RVGNCKHLK (here or on the partner: biotinylated heavy chain) [P82 9-mer neoantigen peptide … (AR-V7 splice variant)]", "rule met"],
  ["CPMSRLRLA (here or on the partner: biotinylated heavy chain) [P46 9-mer neoantigen peptide … (TP53 (R213D) frameshift)]", "rule not met"],
  ["LLERNSFEV (here or on the partner: biotinylated heavy chain) [P73 9-mer neoantigen peptide … (TP53 (G266E) missense)]", "rule not met"],
  ["FLFLLLPLS (here or on the partner: biotinylated heavy chain) [P87 9-mer neoantigen peptide … (AR-Intron splice variant)]", "rule not met"],
  ["CYLGRQKRF (here or on the partner: biotinylated heavy chain) [P61 9-mer neoantigen peptide … (FOXA1.p.R261G missense)]", "rule met"],
  ["RAKCKFSIL (here or on the partner: biotinylated heavy chain) [P56 9-mer neoantigen peptide … (SPOP(F102C) missense)]", "rule not met"],
  ["HVPKILSGK (here or on the partner: biotinylated heavy chain) [P58 9-mer neoantigen peptide … (AR (Q903H) missense)]", "rule not met"],
  ["YCMAAPMGL (here or on the partner: biotinylated heavy chain) [P76 9-mer neoantigen peptide … (AR-V3 splice variant)]", "rule not met"]
]}

Then this binder:
// query Dear reviewer, please state whether YQFTFDLLI (here or on the partner: biotinylated heavy chain) [P48 9-mer neoantigen peptide … (AR.p.H875Y missense)] has exchange rate with Pos peptide strictly beneath 8%.
// result rule not met
